- assayTarget: BRD9 (Homo sapiens, UniProt Q9H8M2)
- procedureSummary: Degradation of BRD9 (IF), immunofluorescence in MV4-11 cells, 24 hours (Assay Protocol 2)
- Format: cell-based
- Design: A suspension of MV4-11 cells (ATCC CRL-9591) was prepared; host or cells: MV4-11
- conditions: Table 2; BRD9 degradation (IF), Assay Protocol 2, MV4-11 cells; read-out: Assay 2 DC50
- Experimental: Assay Protocol 2—Degradation of BRD9 (IF) A suspension of MV4-11 cells (ATCC CRL-9591) was prepared in phenol red-free assay media (IMDM Thermo Scientific 21056023+10% FBS ATCC 302025) and cells were seeded at 20,000 cells per well (45 μL) in sterile black poly-d-lysine coated 384 well plates (Greiner 781948). Compounds were prepared at 1000× final concentration in DMSO, diluted 1:100 in assay media, and 5 μL compound was added to each well of the cell plate. […]
readoutName: DC50

molecule="COc1cc(-c2cn(C)c(=O)c3cnccc23)cc(OC)c1CN1CC2CC(C1)N2Cc1cccc2c1CCN(C(=O)/C(C#N)=C/C(C)(C)C)C2C (mixture of isomers)" observedvalue="1.25 to 10 nM"
molecule="COc1cc(-c2cn(C)c(=O)c(C)c2C)cc(OC)c1CN1CCN(Cc2cccc3c2CCN(C(=O)/C(C#N)=C/C2(C)COC2)C3C)CC1 (mixture of isomers)" observedvalue="< 1.25 nM"
molecule="COc1cc(-c2cn(C)c(=O)c3cnccc23)cc(OC)c1CN1CCN(Cc2cccc3c2CCN(C(=O)/C(C#N)=C\\C2(F)CC2)C3C)CC1 (mixture of isomers)" observedvalue="< 1.25 nM"
molecule="COc1cc(-c2cn(C)c(=O)c(C)c2C)cc(OC)c1CN1CCN(Cc2cccc3c2CCN(C(=O)/C(C#N)=C/c2cccc(Br)n2)C3C)CC1 (mixture of isomers)" observedvalue="< 1.25 nM"
molecule="COc1cc(-c2cn(C)c(=O)c3cnccc23)cc(OC)c1CN1CC2CCC(C1)N2Cc1cccc2c1CCN(C(=O)/C(C#N)=C/C(C)(C)C)C2C (mixture of isomers)" observedvalue="< 1.25 nM"

Hi team, please reply with DC50 for each item in this list.
1. COc1cc(-c2cn(C)c(=O)c3cnccc23)cc(OC)c1CN(C)Cc1ccc2c(c1)CCN(C(=O)/C(C#N)=C/c1cccc(Br)n1)C2C (mixture of isomers)
2. COc1cc(-c2cn(C)c(=O)c(C)c2C)cc(OC)c1CN1CC2CC1CN2Cc1cccc2c1CCN(C(=O)/C(C#N)=C/C(C)(C)C)C2C (mixture of isomers)
3. COc1cc(-c2cn(C)c(=O)c(C)c2C)cc(OC)c1CN1CCCN(Cc2cccc3c2CCN(C(=O)/C(C#N)=C/C(C)(C)C)C3C)CC1 (mixture of isomers)
4. COc1cc(-c2cn(C)c(=O)c3cnccc23)cc(OC)c1CN1CCN(Cc2cccc3c2CCN(C(=O)/C(C#N)=C\c2ncc(C)s2)C3C)CC1 (mixture of isomers)
5. COc1cc(-c2cn(C)c(=O)c3cnccc23)cc(OC)c1CN1CCN(Cc2cccc3c2CCN(C(=O)/C(C#N)=C/c2nccs2)C3C)CC1 (mixture of isomers)

1: < 1.25 nM; 2: < 1.25 nM; 3: 10 to 25 nM; 4: < 1.25 nM; 5: < 1.25 nM

* * *

For each record, write down the corresponding Dmax at 1 µM.
- assayTarget: BRD9 (Homo sapiens)
- procedureSummary: BRD9 degradation, HiBiT-BRD9 KI HEK293 (LgBiT) cells, NanoGlo Lytic Endpoint assay (Assay Protocol 1)
- Type: cell-based
- conditions: HEK293; Table 2; BRD9 degradation, Assay Protocol 1; 1 μM compound at 6 h of treatment; read-out: Assay 1 Dmax

compound="COc1cc(-c2cn(C)c(=O)c3cnccc23)cc(OC)c1CN(C)CCN(C)Cc1cccc2c1CCN(C(=O)/C(C#N)=C/C(C)(C)C)C2C (mixture of isomers) [Compound A32]" observedvalue="40 to 70%"
compound="COc1cc(-c2cn(C)c(=O)c(C)c2C)cc(OC)c1CN1CCN(C(=O)CCc2ccc3c(c2)CCN(C(=O)/C(C#N)=C/c2nccs2)C3C)CC1 (mixture of isomers) [Compound A56]" observedvalue="40 to 70%"
compound="COc1cc(-c2cn(C)c(=O)c(C)c2C)cc(OC)c1CN1CCN(Cc2cccc3c2CCN(C(=O)/C(C#N)=C/C2(C)COC2)C3C)CC1 (mixture of isomers) [Compound A51]" observedvalue="40 to 70%"
compound="COc1cc(-c2cn(C)c(=O)c(C)c2C)cc(OC)c1CN1CCN(Cc2cccc3c2CCN(C(=O)/C(C#N)=C/c2nc4ccccc4s2)C3C)CC1 (mixture of isomers) [Compound A20]" observedvalue="> 75%"

Lab note: COc1cc(-c2cn(C)c(=O)c(C)c2C)cc(OC)c1CN1CCN(Cc2cccc3c2CCN(C(=O)/C(C#N)=C/c2ccn(C)n2)C3C)CC1 (centres unmarked) [Compound A8] gave Dmax at 1 µM of 40 to 70%

* * *

For each record, write down the corresponding Dmax.
- assayTarget: UniProtKB Q9H8M2
- Sequence (Q9H8M2 1-597): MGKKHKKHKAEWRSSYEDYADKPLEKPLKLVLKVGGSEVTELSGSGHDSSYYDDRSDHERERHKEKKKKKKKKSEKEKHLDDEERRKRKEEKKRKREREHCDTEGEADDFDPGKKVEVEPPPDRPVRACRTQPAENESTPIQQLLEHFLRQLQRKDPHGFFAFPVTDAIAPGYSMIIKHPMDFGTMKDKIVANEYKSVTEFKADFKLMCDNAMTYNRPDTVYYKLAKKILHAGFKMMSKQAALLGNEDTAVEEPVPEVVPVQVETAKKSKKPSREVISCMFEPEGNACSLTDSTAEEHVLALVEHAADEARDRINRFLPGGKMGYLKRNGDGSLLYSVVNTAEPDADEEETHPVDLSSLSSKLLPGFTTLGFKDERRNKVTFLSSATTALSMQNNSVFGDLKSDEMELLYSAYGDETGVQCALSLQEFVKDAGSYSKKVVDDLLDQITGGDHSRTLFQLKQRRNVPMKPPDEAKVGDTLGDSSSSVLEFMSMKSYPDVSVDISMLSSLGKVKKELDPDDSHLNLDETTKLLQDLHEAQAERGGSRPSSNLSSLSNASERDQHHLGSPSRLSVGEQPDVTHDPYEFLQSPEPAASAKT
- procedureSummary: Degradation of BRD9 (IF), immunofluorescence in MV4-11 cells, 24 hours (Assay Protocol 2)
- Format: cell-based
- Parameters: A suspension of MV4-11 cells (ATCC CRL-9591) was prepared; host or cells: MV4-11
- conditions: MV4-11, Assay protocol 2; BRD9 degradation; read-out: Dmax

Sample answers from the record:
molecule="COc1cc(-c2cn(C)c(=O)c(C)c2C)cc(OC)c1CN(C)Cc1ccc2c(c1)C(C)N(C(=O)/C(C#N)=C/c1cccc(Br)n1)CC2 (mixture of isomers)" assaytarget="UniProtKB Q9H8M2" observedvalue="> 75%"
molecule="COc1cc(-c2cn(C)c(=O)c(C)c2C)cc(OC)c1CN1CCCN(Cc2cccc3c2CCN(C(=O)/C(C#N)=C/c2cccc(C(F)(F)F)n2)C3C)CC1 (mixture of isomers)" assaytarget="UniProtKB Q9H8M2" observedvalue="> 75%"
molecule="COc1cc(-c2cn(C)c(=O)c(C)c2C)cc(OC)c1CN1CCC2(CCN(c3ccc4c(c3)[C@H](C)N(C(=O)/C(C#N)=C/C(C)(C)C)CC4)C2)C1 (single isomer, unassigned)" assaytarget="UniProtKB Q9H8M2" observedvalue="40 to 70%"
molecule="COc1cc(-c2cn(C)c(=O)c(C)c2C)cc(OC)c1CN1CC(N(C)Cc2ccc3c(c2)[C@@H](C)N(C(=O)/C(C#N)=C/C(C)(C)C)CC3)C1 (single isomer, unassigned)" assaytarget="UniProtKB Q9H8M2" observedvalue="40 to 70%"
molecule="COc1cc(-c2cn(C)c(=O)c(C)c2C)cc(F)c1CN1CCN(Cc2ccc3c(c2)[C@@H](C)N(C(=O)/C(C#N)=C/C(C)(C)C)CC3)C2(CC2)C1 (single isomer, unassigned)" assaytarget="UniProtKB Q9H8M2" observedvalue="> 75%"

Hi team, please reply with Dmax for each item in this list.
1. COc1cc(-c2cn(C)c(=O)c(C)c2C)cc(OC)c1CN1CCN(Cc2cccc3c2CCN(C(=O)/C(C#N)=C/C(C)(C)C)C3C(C)C)[C@@H](C)C1 (mixture of isomers)
2. COc1cc(-c2cn(C)c(=O)c(C)c2C)cc(OC)c1CN1CC[C@H](Oc2cccc3c2CCN(C(=O)/C(C#N)=C/C(C)(C)C)C3C)C1 (mixture of isomers)

> 75%
40 to 70%

* * *

- assayTarget: BRD7 (Homo sapiens)
- Construct: HiBiT-BRD7 KI HEK293 (LgBiT) Cells (Promega CS3023410); host or cells: HEK293 (LgBiT), HiBiT knock-in at the BRD7 locus
- Sequence (Q9NPI1 whole entry): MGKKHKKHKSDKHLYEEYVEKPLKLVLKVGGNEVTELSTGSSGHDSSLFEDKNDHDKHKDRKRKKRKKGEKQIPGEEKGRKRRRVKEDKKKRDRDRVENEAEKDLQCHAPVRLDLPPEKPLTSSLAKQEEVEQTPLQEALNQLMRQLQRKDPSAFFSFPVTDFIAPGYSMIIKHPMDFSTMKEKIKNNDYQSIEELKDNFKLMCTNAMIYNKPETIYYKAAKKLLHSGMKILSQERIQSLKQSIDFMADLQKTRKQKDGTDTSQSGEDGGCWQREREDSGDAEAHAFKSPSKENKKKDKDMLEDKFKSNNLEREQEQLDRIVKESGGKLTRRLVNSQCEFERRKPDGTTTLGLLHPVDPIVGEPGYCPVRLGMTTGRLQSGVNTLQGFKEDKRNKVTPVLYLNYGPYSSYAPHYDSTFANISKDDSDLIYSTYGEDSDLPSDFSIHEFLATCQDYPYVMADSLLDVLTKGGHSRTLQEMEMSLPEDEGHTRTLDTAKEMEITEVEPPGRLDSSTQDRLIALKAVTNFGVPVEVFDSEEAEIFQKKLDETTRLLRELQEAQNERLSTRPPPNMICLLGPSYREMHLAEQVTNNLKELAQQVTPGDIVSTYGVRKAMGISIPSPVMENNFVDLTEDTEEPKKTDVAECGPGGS
- procedureSummary: BRD7 degradation, HiBiT-BRD7 KI HEK293 (LgBiT) cells, NanoGlo Lytic Endpoint assay (Assay Protocol 1)
- Assay type: cell-based
- conditions: HEK293; Table 3; assay 1; 1 μM compound at 5 h of treatment
For each record, write down the corresponding Dmax at 1 µM.

Sample answers from the record:
compound="COc1cc(-c2cn(C)c(=O)c3cnccc23)cc(OC)c1CN(C)Cc1cccc2c1CCN(C(=O)/C(C#N)=C/c1cccc(Br)n1)C2C (mixture of isomers)" assaytarget="BRD7 (Homo sapiens)" readoutname="Dmax at 1 µM" observedvalue="25 to 40%"
compound="COc1cc(-c2cc(C)c(=O)n(C)c2)cc(OC)c1CN1CCN(Cc2cccc3c2CCN(C(=O)/C(C#N)=C/c2cccc(Br)n2)C3C)CC1 (mixture of isomers)" assaytarget="BRD7 (Homo sapiens)" readoutname="Dmax at 1 µM" observedvalue="< 25%"
compound="COc1cc(-c2cn(C)c(=O)c(C)c2C)cc(OC)c1CN1CCN(Cc2cccc3c2CCN(C(=O)/C(C#N)=C/c2cccc(Br)n2)C3C)CC1 (mixture of isomers)" assaytarget="BRD7 (Homo sapiens)" readoutname="Dmax at 1 µM" observedvalue="25 to 40%"
compound="COc1cc(-c2cc(C)c(=O)n(C)c2)cc(OC)c1CN1CCN(Cc2cccc3c2CCN(C(=O)/C(C#N)=C/C2(F)CC2)C3C)CC1 (mixture of isomers)" assaytarget="BRD7 (Homo sapiens)" readoutname="Dmax at 1 µM" observedvalue="< 25%"
compound="COc1cc(-c2cn(C)c(=O)c(C)c2C)cc(OC)c1CN1CCCN(Cc2cccc3c2CCN(C(=O)/C(C#N)=C/C(C)(C)C)C3C)CC1 (mixture of isomers)" assaytarget="BRD7 (Homo sapiens)" readoutname="Dmax at 1 µM" observedvalue="< 25%"

Hi team, please reply with Dmax at 1 µM for each item in this list.
1. COc1cc(-c2cn(C)c(=O)c(C)c2C)cc(OC)c1CN1CC2CC(C1)N2Cc1cccc2c1CCN(C(=O)/C(C#N)=C/C(C)(C)C)C2C (mixture of isomers)
2. COc1cc(-c2cn(C)c(=O)c(C)c2C)cc(OC)c1CN1CCN(Cc2cccc3c2CCN(C(=O)/C(C#N)=C/c2nccs2)C3C)CC1 (mixture of isomers)
3. COc1cc(-c2cn(C)c(=O)c3cnccc23)cc(OC)c1CN1CCN(Cc2cccc3c2CCN(C(=O)/C(C#N)=C\c2ncc(C)s2)C3C)CC1 (mixture of isomers)
4. COc1cc(-c2cn(C)c(=O)c(C)c2C)cc(OC)c1CN1CCN(Cc2cccc3c2CCN(C(=O)/C(C#N)=C/c2ncc(C)s2)C3C)CC1 (mixture of isomers)

1. 40 to 70%
2. < 25%
3. 25 to 40%
4. 25 to 40%

Lab note: COc1cc(-c2cn(C)c(=O)c(C)c2C)cc(OC)c1CN1CCC(Oc2cccc3c2CCN(C(=O)/C(C#N)=C/c2cccc(Br)n2)C3C)CC1 (mixture of isomers) gave Dmax at 1 µM of < 25%

The measurements presented in this section are drawn from patent US20260092061A1.
